The origin of these recorded values is PubChem BioAssay (Tox21).

Assay: qHTS assay to identify small molecule agonists of the constitutive androstane receptor (CAR) signaling pathway - cell viability counter screen (AID 1224836); further: nearly all actives have a fitted effect of over 45% in size
Conditions: HepG2-CYP2B6-hCAR viability, CellTiter-Fluor, 23 h, PK11195 added to every well; series mostly up to 92.4 µM
Records with an inconclusive call do not appear. Activity calls are given as the source filed them. The call rests on the fitted dose curve; in most records, active means well fitted cell-killing curve with a large enough effect in the repeat runs; inconclusive means weak or mixed curves, or effect the other way; inactive means flat fitted curve, though single readings scatter.
Parameter call: string, one of active, inactive

{"molecule": "CCOc1nc(F)cc2nc(S(=O)(=O)Nc3c(Cl)cccc3Cl)nn12", "assigned-category": "inactive"}
{"molecule": "COc1cc(CC(C)N)cc2c1OCO2 (stereo not drawn)", "assigned-category": "inactive"}
{"molecule": "Nc1nc(=S)[nH][nH]1", "assigned-category": "inactive"}
{"molecule": "O=C1c2ccccc2C(=O)C1C(=O)C(c1ccccc1)c1ccccc1", "assigned-category": "inactive"}
{"molecule": "CC(C)=CCOc1c2occc2cc2ccc(=O)oc12", "assigned-category": "inactive"}

Q: I'd appreciate the recorded outcome for COc1nn(C(=O)NS(=O)(=O)c2ccccc2OC(F)(F)F)c(=O)n1C from this test.
Result: inactive

Q: I'd appreciate the recorded outcome for CCC(Cl)CCl (stereo not drawn) from this test.
Result: inactive

Q: I'd appreciate the recorded outcome for N#Cc1ccc(Cl)cc1 from this test.
Result: inactive
